experiment: Rat IV and PO PK studies; type: in vivo, male Sprague-Dawley rats; details: male, Sprague-Dawley, plasma, intravenous, 3.0 mg/kg, read-out: Rat iv CL
This section presents compounds with their documented clearance values.
Return type: number; implicit unit mL/min/kg.

# annotated cases, reported clearance shown
| compound | clearance [mL/min/kg] |
| --- | --- |
| C[C@@H]1CN(c2nc(-n3ccc(OCC4C5(CC5)C45CC5)n3)ccc2C(=O)NS(=O)(=O)c2ccccc2)C(C)(C)C1 | 3.4 |
| C[C@@H]1CN(c2nc(-n3ccc(OCC4(C(F)(F)F)CC4)n3)ccc2C(=O)NS(=O)(=O)c2ccc(C#N)cc2)C(C)(C)C1 | 3.6 |

Retrieve clearance measured for C[C@@H]1CN(c2nc(-n3ccc(OCCC4(C(F)(F)F)CC4)n3)ccc2C(=O)NS(=O)(=O)c2ccccc2)C(C)(C)C1 and print it.
1.6

Retrieve clearance measured for C[C@@H]1CN(c2nc(-n3ccc(OCC(C)(C)C)n3)ccc2C(=O)NS(=O)(=O)c2ccccc2)C(C)(C)C1 [Comp. B, reference compound] and print it.
29.2

Retrieve clearance measured for C[C@@H]1CN(c2cc(-n3ccc(OCCC4(C(F)(F)F)CC4)n3)ncc2C(=O)NS(=O)(=O)c2ccccc2)C(C)(C)C1 and print it.
5

Retrieve clearance measured for Cc1ccccc1S(=O)(=O)NC(=O)c1ccc(-n2ccc(OCC3(C(F)(F)F)CC3)n2)nc1N1C[C@@H](C)CC1(C)C and print it.
2.7

Retrieve clearance measured for C[C@@H]1CN(c2nc(-n3ccc(OCC4C(C)(C)C4(C)C)n3)ccc2C(=O)NS(=O)(=O)c2cccc(F)c2)C(C)(C)C1 and print it.
24.8
